- system name: C3 purified from fresh human plasma (human, UniProt P01024 23-1663)
- Sequence (P01024 23-1663): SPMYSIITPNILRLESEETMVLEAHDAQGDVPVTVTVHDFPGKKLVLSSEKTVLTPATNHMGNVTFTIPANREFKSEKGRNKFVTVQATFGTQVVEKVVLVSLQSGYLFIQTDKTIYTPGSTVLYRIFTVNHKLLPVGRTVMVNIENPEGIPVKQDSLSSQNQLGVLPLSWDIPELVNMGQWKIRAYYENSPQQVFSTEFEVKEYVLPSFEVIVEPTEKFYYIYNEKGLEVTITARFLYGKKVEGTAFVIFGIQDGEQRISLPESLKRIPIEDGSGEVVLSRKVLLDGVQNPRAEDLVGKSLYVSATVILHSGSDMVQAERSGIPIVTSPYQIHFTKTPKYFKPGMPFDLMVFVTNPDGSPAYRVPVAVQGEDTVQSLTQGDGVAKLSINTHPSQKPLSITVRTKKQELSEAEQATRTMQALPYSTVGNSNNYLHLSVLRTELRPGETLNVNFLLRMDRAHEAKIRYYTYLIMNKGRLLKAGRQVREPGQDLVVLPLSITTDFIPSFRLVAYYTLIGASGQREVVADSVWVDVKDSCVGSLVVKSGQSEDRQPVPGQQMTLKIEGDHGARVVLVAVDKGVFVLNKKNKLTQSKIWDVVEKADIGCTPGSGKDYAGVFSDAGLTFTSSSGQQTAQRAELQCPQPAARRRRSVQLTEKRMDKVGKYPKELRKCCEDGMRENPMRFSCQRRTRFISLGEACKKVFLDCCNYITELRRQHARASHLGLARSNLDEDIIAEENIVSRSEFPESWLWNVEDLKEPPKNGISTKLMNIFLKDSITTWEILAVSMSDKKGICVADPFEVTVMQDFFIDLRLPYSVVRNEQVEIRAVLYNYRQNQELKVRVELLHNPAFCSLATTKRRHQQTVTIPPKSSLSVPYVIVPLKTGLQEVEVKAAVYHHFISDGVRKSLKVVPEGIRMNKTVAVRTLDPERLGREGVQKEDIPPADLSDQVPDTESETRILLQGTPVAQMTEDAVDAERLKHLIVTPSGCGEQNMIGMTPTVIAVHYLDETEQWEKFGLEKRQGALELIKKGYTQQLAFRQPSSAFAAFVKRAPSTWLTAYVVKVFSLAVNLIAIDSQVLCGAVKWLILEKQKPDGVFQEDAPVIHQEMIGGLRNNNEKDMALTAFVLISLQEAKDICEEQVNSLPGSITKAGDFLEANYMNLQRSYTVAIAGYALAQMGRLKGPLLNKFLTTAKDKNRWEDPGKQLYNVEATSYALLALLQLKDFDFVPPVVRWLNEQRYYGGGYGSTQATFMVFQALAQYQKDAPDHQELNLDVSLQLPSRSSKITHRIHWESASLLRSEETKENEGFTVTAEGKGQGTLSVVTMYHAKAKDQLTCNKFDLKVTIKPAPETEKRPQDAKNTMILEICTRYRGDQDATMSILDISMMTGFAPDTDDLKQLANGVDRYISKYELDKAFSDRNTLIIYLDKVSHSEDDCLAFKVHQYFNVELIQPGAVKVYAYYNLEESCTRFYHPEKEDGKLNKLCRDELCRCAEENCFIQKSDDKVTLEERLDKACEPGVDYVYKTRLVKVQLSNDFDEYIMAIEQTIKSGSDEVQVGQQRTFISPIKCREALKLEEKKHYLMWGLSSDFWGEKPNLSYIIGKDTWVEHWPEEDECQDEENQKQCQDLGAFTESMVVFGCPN
- assay remarks: cell-based or functional assay
Bridge positions count the residues as written; N and C are the ends. Square brackets hold non-standard residues; d marks the D form. NMeW = CN[C@@H](Cc1c[nH]c2ccccc12)C(=O)O; NMeQ = CN[C@@H](CCC(N)=O)C(=O)O; Sar = CNCC(=O)O
observable: IC50-fold change relative to peptide 1 (fold)
Write the value in fold as a bare number.

Sample answers from the record:
* Ac-ICVYQD[NMeW]GAHRCT-NH2 (disulfide 2-12; SMILES CC[C@H](C)[C@H](NC(C)=O)C(=O)N[C@H]1CSSC[C@@H](C(=O)N[C@H](C(N)=O)[C@@H](C)O)NC(=O)[C@H](CCCNC(=N)N)NC(=O)[C@H](Cc2c[nH]cn2)NC(=O)[C@H](C)NC(=O)CNC(=O)[C@H](Cc2c[nH]c3ccccc23)N(C)C(=O)[C@H](CC(=O)O)NC(=O)[C@H](CCC(N)=O)NC(=O)[C@H](Cc2ccc(O)cc2)NC(=O)[C@H](C(C)C)NC1=O) [Ac-I[CVYQD(NMe)WGAHRC]T-NH2] | 0.1
* Ac-ICVY[NMeQ]DWGAHRCT-NH2 (disulfide 2-12; SMILES CC[C@H](C)[C@H](NC(C)=O)C(=O)N[C@H]1CSSC[C@@H](C(=O)N[C@H](C(N)=O)[C@@H](C)O)NC(=O)[C@H](CCCNC(=N)N)NC(=O)[C@H](Cc2c[nH]cn2)NC(=O)[C@H](C)NC(=O)CNC(=O)[C@H](Cc2c[nH]c3ccccc23)NC(=O)[C@H](CC(=O)O)NC(=O)[C@H](CCC(N)=O)N(C)C(=O)[C@H](Cc2ccc(O)cc2)NC(=O)[C@H](C(C)C)NC1=O) [Ac-I[CVY(NMe)QDWGAHRC]T-NH2] | 0.07

Kindly consider the entry below.
Any idea what its IC50-fold change relative to peptide 1 is? The binder is Ac-ICVYQDW[Sar]AHRCT-NH2 (disulfide 2-12; SMILES CC[C@H](C)[C@H](NC(C)=O)C(=O)N[C@H]1CSSC[C@@H](C(=O)N[C@H](C(N)=O)[C@@H](C)O)NC(=O)[C@H](CCCNC(=N)N)NC(=O)[C@H](Cc2c[nH]cn2)NC(=O)[C@H](C)NC(=O)CN(C)C(=O)[C@H](Cc2c[nH]c3ccccc23)NC(=O)[C@H](CC(=O)O)NC(=O)[C@H](CCC(N)=O)NC(=O)[C@H](Cc2ccc(O)cc2)NC(=O)[C@H](C(C)C)NC1=O) [Ac-I[CVYQDW(NMe)GAHRC]T-NH2]
1.7
